B1: HDAC6 (parent)
chain: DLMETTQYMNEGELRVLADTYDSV

variants of: B1; experiment: protein stability index of a GFP-peptide fusion (GPS, HEK-293T) (PSI 1-6); higher = more stable; conditions: c terminus: a fixed tail appended;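 also: lentivirally expressed fusions sorted by FACS into six bins by GFP to DsRed ratio, PSI derived from sequencing read proportions per bin multiplied by bin number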
PROPERTY_NAME: protein stability index

Q: For `M3G` , what is its reported protein stability index?
A: 3.84

Q: For `Q7Y` , what is its reported protein stability index?
A: 2.52

Q: For `D1I` , what is its reported protein stability index?
A: 3.02

Q: For `V24L` , what is its reported protein stability index?
A: 2.11

Q: For `A18F` , what is its reported protein stability index?
A: 1.86

Q: For `Y21K` , what is its reported protein stability index?
A: 2.74

Q: For `E4A` , what is its reported protein stability index?
A: 2.03

Q: For `T20H` , what is its reported protein stability index?
A: 2.71

Q: For `T6A` , what is its reported protein stability index?
A: 1.75

Q: For `L17Q` , what is its reported protein stability index?
A: 3.11

Q: For `L17T` , what is its reported protein stability index?
A: 3.59

Q: For `L2Y` , what is its reported protein stability index?
A: 3.88

Q: For `M3E` , what is its reported protein stability index?
A: 3.74

Q: For `L2C` , what is its reported protein stability index?
A: 3.12

Q: For `D1E` , what is its reported protein stability index?
A: 2.22

Q: For `E13W` , what is its reported protein stability index?
A: 2.32

Q: For `D22R` , what is its reported protein stability index?
A: 2.91

Q: For `D19L` , what is its reported protein stability index?
A: 1.64

Q: For `V16E` , what is its reported protein stability index?
A: 4.75

Q: For `Y8I` , what is its reported protein stability index?
A: 4.19

Q: For `D22N` , what is its reported protein stability index?
A: 1.48

Q: For `G12Q` , what is its reported protein stability index?
A: 4.16

Q: For `E11V` , what is its reported protein stability index?
A: 2.45

Q: For `Y8H` , what is its reported protein stability index?
A: 4.78

Q: For `A18K` , what is its reported protein stability index?
A: 2.18

Q: For `L14W` , what is its reported protein stability index?
A: 2.48

Q: For `T20W` , what is its reported protein stability index?
A: 1.77

Q: For `M3V` , what is its reported protein stability index?
A: 2.2

Q: For `T20R` , what is its reported protein stability index?
A: 3.07

Q: For `Q7G` , what is its reported protein stability index?
A: 2.05

Q: For `V24Y` , what is its reported protein stability index?
A: 1.49

Q: For `V16G` , what is its reported protein stability index?
A: 4.03

Q: For `E13L` , what is its reported protein stability index?
A: 2.63

Q: For `T5P` , what is its reported protein stability index?
A: 1.72

Q: For `T20Y` , what is its reported protein stability index?
A: 2.06

Q: For `L14K` , what is its reported protein stability index?
A: 2.96

Q: For `R15F` , what is its reported protein stability index?
A: 2.64

Q: For `D22K` , what is its reported protein stability index?
A: 1.75

Q: For `G12Y` , what is its reported protein stability index?
A: 2.62

Q: For `T5Q` , what is its reported protein stability index?
A: 1.99

Q: For `R15K` , what is its reported protein stability index?
A: 2.27

Q: For `D1G` , what is its reported protein stability index?
A: 3.06

Q: For `N10C` , what is its reported protein stability index?
A: 1.88

Q: For `L14P` , what is its reported protein stability index?
A: 4.29

Q: For `E4N` , what is its reported protein stability index?
A: 1.98

Q: For `Y8S` , what is its reported protein stability index?
A: 5.09

Q: For `Y21G` , what is its reported protein stability index?
A: 2.66

Q: For `M3H` , what is its reported protein stability index?
A: 3.91

Q: For `N10V` , what is its reported protein stability index?
A: 1.8

Q: For `L2A` , what is its reported protein stability index?
A: 2.33

Q: For `A18M` , what is its reported protein stability index?
A: 1.12

Q: For `E13N` , what is its reported protein stability index?
A: 3.96

Q: For `V16W` , what is its reported protein stability index?
A: 3.54

Q: For `T6Q` , what is its reported protein stability index?
A: 1.94

Q: For `E11C` , what is its reported protein stability index?
A: 2.47

Q: For `S23T` , what is its reported protein stability index?
A: 2.05

Q: For `L17Y` , what is its reported protein stability index?
A: 1.99

Q: For `E13C` , what is its reported protein stability index?
A: 3.37

Q: For `N10T` , what is its reported protein stability index?
A: 2.21

Q: For `E13G` , what is its reported protein stability index?
A: 4.06

Q: For `E4S` , what is its reported protein stability index?
A: 1.78

Q: For `L14N` , what is its reported protein stability index?
A: 3.03

Q: For `M9V` , what is its reported protein stability index?
A: 3.6

Q: For `R15Q` , what is its reported protein stability index?
A: 1.76

Q: For `M9R` , what is its reported protein stability index?
A: 4.28

Q: For `M3R` , what is its reported protein stability index?
A: 3.77

Q: For `V24G` , what is its reported protein stability index?
A: 2.1

Q: For `L14E` , what is its reported protein stability index?
A: 2.07

Q: For `Y21L` , what is its reported protein stability index?
A: 1.96

Q: For `S23K` , what is its reported protein stability index?
A: 2.03

Q: For `V24N` , what is its reported protein stability index?
A: 2.77

Q: For `T20E` , what is its reported protein stability index?
A: 2.41

Q: For `E4W` , what is its reported protein stability index?
A: 1.5

Q: For `V16I` , what is its reported protein stability index?
A: 2.1

Q: For `M9I` , what is its reported protein stability index?
A: 4.14

Q: For `T6P` , what is its reported protein stability index?
A: 2.3

Q: For `M9G` , what is its reported protein stability index?
A: 4.71

Q: For `E13K` , what is its reported protein stability index?
A: 3.69

Q: For `Q7L` , what is its reported protein stability index?
A: 2.12

Q: For `V24M` , what is its reported protein stability index?
A: 2.24

Q: For `Y8L` , what is its reported protein stability index?
A: 4.27

Q: For `T5W` , what is its reported protein stability index?
A: 1.61

Q: For `G12W` , what is its reported protein stability index?
A: 2.03

Q: For `E4H` , what is its reported protein stability index?
A: 2.18

Q: For `S23M` , what is its reported protein stability index?
A: 2.33

Q: For `D1V` , what is its reported protein stability index?
A: 1.25

Q: For `E13Y` , what is its reported protein stability index?
A: 2.83

Q: For `D22H` , what is its reported protein stability index?
A: 2

Q: For `G12E` , what is its reported protein stability index?
A: 4.82

Q: For `V16T` , what is its reported protein stability index?
A: 4.2

Q: For `D1M` , what is its reported protein stability index?
A: 1.54
